The listing below reports pIC50 for molecules tested on Substance-P receptor (Cavia porcellus, UniProt P30547).
Sequence (P30547 whole entry): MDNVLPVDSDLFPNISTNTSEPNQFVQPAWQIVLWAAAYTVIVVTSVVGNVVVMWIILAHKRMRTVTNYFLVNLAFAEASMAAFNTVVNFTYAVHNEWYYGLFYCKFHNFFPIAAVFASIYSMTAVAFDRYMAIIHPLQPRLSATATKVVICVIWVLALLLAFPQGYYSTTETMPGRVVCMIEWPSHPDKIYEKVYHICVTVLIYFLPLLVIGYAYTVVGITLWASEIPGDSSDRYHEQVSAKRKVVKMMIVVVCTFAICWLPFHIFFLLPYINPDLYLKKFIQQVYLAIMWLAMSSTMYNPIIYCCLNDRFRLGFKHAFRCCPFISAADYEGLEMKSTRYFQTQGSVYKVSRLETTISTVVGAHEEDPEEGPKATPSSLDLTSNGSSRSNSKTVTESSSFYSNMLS
Expect pIC50 as a plain number equal to -log10 of the molar concentration.

INSERT INTO assay_data (molecule, observed) VALUES
  ('COc1ccccc1CC(=N)N1C[C@@H]2C(=O)CCC(c3ccccc3)(c3ccccc3)[C@@H]2C1', 7.49);

Alright, here's another molecule for you.
Result for COc1ccccc1CN(CC(Cc1c[nH]c2ccccc12)NC(=O)CN1CCN(Cc2ccccc2)CC1)C(C)=O (configuration not stated) , tested on Substance-P receptor (Cavia porcellus, UniProt P30547), pIC50: 9.06

====

Tested System: Substance-P receptor (Rattus norvegicus, UniProt P14600)
Sequence (P14600 whole entry): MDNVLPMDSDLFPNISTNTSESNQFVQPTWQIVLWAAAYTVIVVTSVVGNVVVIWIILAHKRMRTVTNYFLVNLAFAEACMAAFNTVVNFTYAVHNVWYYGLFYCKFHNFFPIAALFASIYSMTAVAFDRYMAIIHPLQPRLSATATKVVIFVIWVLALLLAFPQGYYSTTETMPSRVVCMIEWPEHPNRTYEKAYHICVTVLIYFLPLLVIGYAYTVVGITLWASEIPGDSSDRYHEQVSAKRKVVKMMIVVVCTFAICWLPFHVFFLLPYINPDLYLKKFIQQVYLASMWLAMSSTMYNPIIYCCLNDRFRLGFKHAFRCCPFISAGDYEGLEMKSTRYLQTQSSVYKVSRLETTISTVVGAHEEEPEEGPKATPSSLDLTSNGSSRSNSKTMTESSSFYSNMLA
Assay Text: Inhibitory activity against Tachykinin receptor 1 in rat brain using [125I]-labeled Boltan-Hunter substance P as radioligand
Type: tissue-based
Entries and their pIC50
Expect pIC50 as a plain number equal to -log10 of the molar concentration.

INSERT INTO results (compound, tested_system, observed) VALUES
  ('COc1ccccc1CN(CC(Cc1c[nH]c2ccccc12)NC(=O)CN1CCN(Cc2ccccc2)CC1)C(C)=O (configuration not stated)', 'Substance-P receptor (Rattus norvegicus, UniProt P14600)', 7.80);

Alright, here's another compound for you.
# compound COc1ccccc1CC(=N)N1C[C@@H]2C(=O)CCC(c3ccccc3)(c3ccccc3)[C@@H]2C1 ; its pIC50 = 8.17
